pKi: −log10 of the molar value.
Multi-source literature compilation: pKi on rat EP4 receptor (Rattus norvegicus, UniProt P43114).
Sequence (P43114 whole entry): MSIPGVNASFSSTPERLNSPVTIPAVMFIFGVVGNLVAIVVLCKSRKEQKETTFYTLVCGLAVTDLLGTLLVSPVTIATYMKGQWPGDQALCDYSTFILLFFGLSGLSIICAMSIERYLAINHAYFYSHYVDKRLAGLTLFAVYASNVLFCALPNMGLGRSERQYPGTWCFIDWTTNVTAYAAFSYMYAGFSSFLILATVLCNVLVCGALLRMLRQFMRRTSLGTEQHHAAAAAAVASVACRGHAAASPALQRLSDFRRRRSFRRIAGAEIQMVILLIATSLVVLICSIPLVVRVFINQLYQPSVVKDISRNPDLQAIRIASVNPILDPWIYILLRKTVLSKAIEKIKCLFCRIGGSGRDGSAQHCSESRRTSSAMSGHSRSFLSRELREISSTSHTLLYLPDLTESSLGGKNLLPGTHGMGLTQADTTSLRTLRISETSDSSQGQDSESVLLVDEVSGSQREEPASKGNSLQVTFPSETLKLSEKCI
property.name: pKi

Observe how each entry below is paired with its result.
# molecule.smiles, property.name, numeric.value
rows = [
    ("CN(NC(=O)c1cccc2ccn(CCOc3ccc(Cl)cc3)c12)c1ccc(C(=O)O)cc1", "pKi", 9.46),
    ("CCN(Cc1c(Cl)cc(Cl)c(=O)n1CCc1ccc(C(=O)O)cc1)c1cccc(C(C)C)c1", "pKi", 7.68),
    ("CCc1cccc(N(C)Cc2c(Cl)cc(Cl)c(=O)n2CCc2ccc(C(=O)O)cc2)c1", "pKi", 7.55),
    ("C[C@H](NC(=O)c1cc2ccccc2n1Cc1ccc(Cl)cc1)c1ccc(C(=O)O)cc1", "pKi", 8.00),
    ("CC(=O)c1cn(C)c2cc(C(=O)N[C@@H](CCCNC(=O)OCc3ccccc3)C(=O)N[C@H]3CCC[C@H]3C(=O)O)ccc12", "pKi", 8.96),
]

I: O=C(O)c1ccc(CNC(=O)c2cccc3ccn(Cc4cc5ccccc5o4)c23)cc1
II: CN(Cc1c(Cl)cc(Cl)c(=O)n1CCc1ccc(C(=O)O)cc1)c1cccc(F)c1
Request: Please choose the item with the lower pKi value from this pair: I and II Respond with the label that goes with your answer.
Response: II
(II: 7.80, I: 9.12)

* * *

Record: compiled Ki on rat EP4 receptor (Rattus norvegicus) from multiple reports.
property.name: Ki (nM)

# molecule, Ki [nM]
data = [
    ("O=C(O)c1ccc(CCn2c(CN3CCc4ccc(OC(F)(F)F)cc43)c(Cl)cc(Cl)c2=O)cc1", 5.1),
    ("CC(C)c1cccc(N(C)Cc2c(Cl)cc(Cl)c(=O)n2CCc2ccc(C(=O)O)cc2)c1", 4.7),
    ("C[C@H](NC(=O)c1cccc2ccn(Cc3coc(-c4ccccc4)n3)c12)c1ccc(C(=O)O)cc1", 0.61),
    ("Cc1nn(Cc2cc3ccccc3cn2)c(C(=O)N[C@@H](C)c2ccc(C(=O)O)cc2)c1Br", 0.874),
    ("Cc1cccc(N(C)Cc2c(Cl)cc(Cl)c(=O)n2CCc2ccc(C(=O)O)cc2)c1", 11),
]

I: Cn1c(C(=O)N[C@@H](CCCNC(=O)OCc2ccccc2)C(=O)N[C@H]2CCC[C@H]2c2n[nH]c(=S)o2)cc2ccccc21
II: O=C(NC[C@H]1CC[C@H](C(=O)O)CC1)c1cc(C(F)(F)F)cc2ccn(Cc3cc4cc(Cl)ccc4o3)c12
Request: For the pair I and II , which member has the lower Ki number? To answer, give the label that identifies your chosen option.
Response: II
(II: 1.4 nM, I: 2.1 nM)

I: Cc1cc(C(=O)NC[C@H]2CC[C@H](C(=O)O)CC2)c2c(ccn2Cc2ccc3ccccc3n2)c1
II: O=C(O)c1ccc(CNC(=O)c2cccc3ccn(Cc4ccc(Cl)cc4)c23)cc1
Request: // returns I or II , whichever has the lower Ki Write down the label attached to your selection.
Response: I

a: COc1cccc(C(=O)N[C@@H](CCCNC(=O)OCc2ccccc2)C(=O)N[C@H]2CCC[C@H]2C(=O)O)c1
b: O=C(O)c1ccc(CCn2c(CNc3cccc(C(F)(F)F)c3)c(Cl)cc(Cl)c2=O)cc1
c: CCc1cccc(OCc2c(C3CC3)cc(Cl)c(=O)n2CCc2ccc(C(=O)O)cc2)c1
Request: Could you please order the items by Ki, going from the lowest number to the highest? Answer by writing out the labels in the requested order.
Response: a, c, b
(a: 1.6 nM, c: 8.2 nM, b: 25 nM)

* * *

Literature pKi values, system: rat EP4 receptor (Rattus norvegicus, UniProt P43114).
pKi: −log10 of the molar value.
property.name: pKi

Solved cases below.
# molecule.smiles, numeric.value
measured = [
    ("O=C(NC[C@H]1CC[C@H](C(=O)O)CC1)c1cc(C(F)(F)F)cc2ccn(Cc3ccc(Cl)cc3)c12", 8.85),
    ("C[C@H](NC(=O)c1cccc2c1N(Cc1ccc(Cl)cc1)CC2)c1ccc(C(=O)O)cc1", 9.10),
]

1: O=C(NC[C@H]1CC[C@H](C(=O)O)CC1)c1cccc2ccn(Cc3cc4ccccc4s3)c12
2: COc1ccc2c(c1)N(Cc1c(Cl)cc(Cl)c(=O)n1CCc1ccc(C(=O)O)cc1)CC2
Request: Task for the reader: decide whether 1 or 2 has the larger pKi. Give the label under which the chosen entry appears.
Response: 1

* * *

Here we gather pKi data for rat EP4 receptor (Rattus norvegicus) reported by several publications.
pKi: −log10 of the molar value.
property.name: pKi

Previously resolved entries follow.
# compound, experimental.system, pKi
measured = [
    ("O=C(O)c1ccc2c(ccn2NC(=O)c2ccccc2Cc2ccc(Cl)cc2)c1", "rat EP4 receptor (Rattus norvegicus)", 8.12),
    ("CCc1cccc(/C=C/c2c(Cl)ccc(=O)n2CCc2ccc(C(=O)O)cc2)c1", "rat EP4 receptor (Rattus norvegicus)", 8.12),
    ("O=C(NC[C@H]1CC[C@H](C(=O)O)CC1)c1cc(C(F)(F)F)cc2ccn(Cc3ccc4ccccc4n3)c12", "rat EP4 receptor (Rattus norvegicus)", 8.85),
    ("CN(Cc1c(Cl)cc(Cl)c(=O)n1CCc1ccc(C(=O)O)cc1)c1cccc(Cl)c1", "rat EP4 receptor (Rattus norvegicus)", 7.96),
    ("O=C(NCC1CCC(C(=O)O)CC1)c1cccc2ccn(Cc3ccc(Cl)cc3)c12 (centres unmarked)", "rat EP4 receptor (Rattus norvegicus)", 7.92),
    ("C[C@H](NC(=O)c1sccc1N(C)Cc1ccc(Cl)cc1)c1ccc(C(=O)O)cc1", "rat EP4 receptor (Rattus norvegicus)", 7.80),
]

1: CCc1cccc(NCc2c(Cl)cc(Cl)c(=O)n2CCc2ccc(C(=O)O)cc2)c1
2: Cn1c(C(=O)N[C@@H](CCCNC(=O)OCc2ccccc2)C(=O)N[C@H]2CCC[C@H]2C(=O)NS(=O)(=O)CCCO)cc2ccccc21
Request: # min-compare on pKi between 1 and 2 Answer format: the label of the selected item.
Response: 1

* * *

Study the reported Ki values for rat EP4 receptor (Rattus norvegicus) given below; they originate from different publications.
property.name: Ki (nM)

# molecule.smiles, Ki (nM)
measured = [
    ("COc1ccc2[nH]c(C(=O)N[C@@H](CCCNC(=O)OCc3ccccc3)C(=O)N[C@H]3CCC[C@H]3C(=O)O)cc2c1", 0.26),
    ("O=C(NCCC[C@H](NC(=O)c1ccc2ccccc2n1)C(=O)N[C@H]1CCC[C@H]1C(=O)O)OCc1ccccc1", 0.43),
    ("COc1cccc(/C=C/c2c(Br)cc(Br)c(=O)n2CCCCCCC(=O)O)c1", 35),
]

P: O=C(NCCC[C@H](NC(=O)c1cccc(Cl)n1)C(=O)N[C@H]1CCC[C@H]1C(=O)O)OCc1ccccc1
Q: Cc1cc(C)n(C)c1C(=O)N[C@@H](CCCNC(=O)OCc1ccccc1)C(=O)N[C@H]1CCC[C@H]1C(=O)O
Request: Hi, I'm comparing P with Q and wondering which one has the bigger number for Ki. Any idea? Please respond with the label that marks your chosen entry.
Response: Q

I: Cc1ccc2c(c1)N(Cc1c(Cl)cc(Cl)c(=O)n1CCc1ccc(C(=O)O)cc1)CC2
II: O=C(O)c1ccc(CCn2c(CN3CCc4ccccc43)c(Cl)cc(Cl)c2=O)cc1
Request: Field: lower Ki | Options: I / II Pick one; state its label.
Response: I

* * *

Here is a set of molecules with reported Ki for rat EP4 receptor (Rattus norvegicus), compiled from the literature.
property.name: Ki (nM)

Previously resolved entries follow.
# molecule.smiles, output.unit, Ki
data = [
    ("CC(C)C[C@H]1CCCN1Cc1c(Cl)cc(Cl)c(=O)n1CCc1ccc(C(=O)O)cc1", "nM", 4.4),
    ("O=C(NC[C@H]1CC[C@H](C(=O)O)CC1)c1cc(C(F)(F)F)cc2ccn(Cc3cccc4cnccc34)c12", "nM", 16),
    ("CCCC[C@H]1CCCN1Cc1c(Cl)cc(Cl)c(=O)n1CCc1ccc(C(=O)O)cc1", "nM", 8.6),
]

a: CC(C)c1ccc2c(c1)N(Cc1c(Cl)cc(Cl)c(=O)n1CCc1ccc(C(=O)O)cc1)CC2
b: CN(NC(=O)c1cc(Cl)cc2ccn(Cc3ccc(Cl)cc3)c12)c1ccc(C(=O)O)cc1
c: COc1cccc(/C=C/c2c(Br)cc(Br)c(=O)n2CCc2ccc(C(=O)O)cc2)c1
Request: # rank by Ki, ascending (min first) Answer format: list of labels, ordered as asked.
Response: b, c, a
(b: 0.83 nM, c: 7.1 nM, a: 11 nM)

* * *

pKi: −log10 of the molar value.
Record set: pKi | rat EP4 receptor (Rattus norvegicus, UniProt P43114) | literature, multiple sources.
property.name: pKi

# molecule.smiles, pKi
records = [
    ("CCc1ccc2c(c1)N(Cc1c(Cl)cc(Cl)c(=O)n1CCc1ccc(C(=O)O)cc1)CC2", 8.44),
    ("Cc1cccc2c1N(Cc1c(Cl)cc(Cl)c(=O)n1CCc1ccc(C(=O)O)cc1)CC2", 7.92),
]

P: C[C@H](NC(=O)c1cc(Cl)cc2ccn(Cc3ccc(Cl)cc3)c12)c1ccc(C(=O)O)cc1
Q: O=C(NC[C@H]1CC[C@H](C(=O)O)CC1)c1cc(C(F)(F)F)cc2ccn(Cc3ccc4ccncc4c3)c12
R: CC(C)Oc1ccccc1OCc1c(Cl)cc(Cl)c(=O)n1CCc1ccc(C(=O)O)cc1
Request: Output the entries ranked by pKi from maximum down to minimum. Respond with the label ranking, as requested.
Response: P, Q, R
(P: 9.29, Q: 8.46, R: 8.00)
